Hey, just so you know, these numbers are from PubChem BioAssay.

Provide the recorded z-score for the entries that follow.
# experiment_summary: P. aeruginosa biofilm formation inhibitors, primary screen, PAO1 strain, BacTiter-Glo luminescence, LB-PBS (AID 1144)
# experimental_setup: 12 h, higher = more signal
Answer with a number only.

For reference, reported z-score for `COCCOC(=O)N1C(=O)[C@@]2(c3cc(C#CCCO)ccc31)[C@H](c1ccc(O)cc1)N1[C@H](c3ccccc3)[C@H](c3ccccc3)OC(=O)[C@H]1[C@@H]2C(=O)NC[C@H](O)c1ccccc1` stands at -0.718

For reference, reported z-score for `C=CC[C@H](OC(=O)Nc1ccc(SC)cc1)c1ccc(O)c(F)c1` stands at -0.459

For reference, reported z-score for `CO[C@H]1O[C@H](CO)[C@@H](OC(=O)Nc2cccc(F)c2)[C@H](OC(=O)c2cc3ccccc3[nH]2)[C@H]1OC(=O)c1cc2ccccc2[nH]1` stands at -1.02

For reference, reported z-score for `C=CC[C@]1(C(=O)NCCN2CCOCC2)N=C(c2ccc(OCCCO)cc2)O[C@H]1c1ccccc1` stands at 0.154

For reference, reported z-score for `CN(C)CCCC[C@@H]1NC(=O)[C@H]2C[C@@H](C(=O)NCCCCCCNC(=O)CS)[C@@H](c3cccc(OCCO)c3)N2C1=O` stands at -0.444

For reference, reported z-score for `C=C[C@@H](CO)NS(=O)(=O)c1ccc(Br)cc1` stands at -1.74

For reference, reported z-score for CCN1C(=O)C2CC(=O)C3C(CN(S(=O)(=O)c4ccc(C)cc4)C3c3ccc(C)cc3)C2C1=O (configuration not stated) stands at 1.03

###

Provide the recorded composite z-score for the entries that follow.
# target_under_test: Torsin-1A (Homo sapiens)
# experiment_summary: torsin A binders from cell lysate, primary screen, small-molecule microarray, wild-type, 635/667 nm (AID 1149)
# experimental_setup: COS7 hTOR1A-WT lysate, 635 nm fluorescence, higher = more signal

For reference, reported composite z-score for `[N-]=[N+]=NCc1ccccc1[C@H]1OC(c2ccc(OCCCO)cc2)=N[C@@]1(Cc1ccccc1N=[N+]=[N-])C(N)=O` stands at 1.55

For reference, reported composite z-score for `CCCN1C(=O)[C@@]2(c3ccc([N+](=O)[O-])cc3)CC(=O)N(C3CCCCC3)[C@@H]2c2ccc(CO)cc21` stands at 0.515

For reference, reported composite z-score for `C=CC[C@]1(C(N)=O)N=C(c2ccc(OCCCO)cc2)O[C@H]1c1ccccc1N=[N+]=[N-]` stands at 0.534

For reference, reported composite z-score for `COC(=O)C(CC#Cc1ccc2c(c1)[C@]1(C(=O)N2)[C@H](C(N)=O)[C@H]2C(=O)O[C@H](c3ccccc3)[C@H](c3ccccc3)N2[C@@H]1c1ccccc1OCCO)C(=O)OC` stands at 0.544

For reference, reported composite z-score for `COC(=O)[C@@]1(Cc2ccc(OC)cc2)[C@@H]2[C@@H](CC(=O)[C@H]2CC(=O)C(=O)N(C)C)CN1C(=O)c1ccccc1` stands at -0.0909

For reference, reported composite z-score for `O=C/C=C/c1ccc(-c2ccccc2)cc1` stands at -0.0497

For reference, reported composite z-score for `CC[C@@H](O[Si](C#C[Si](C(C)C)(C(C)C)C(C)C)(C(C)C)C(C)C)c1cn([C@H](CO)Cc2ccccc2)nn1` stands at 0.0922

For reference, reported composite z-score for `COCCOC(=O)N1C(=O)[C@@]2(c3cc(C#CCNC(N)=O)ccc31)[C@H](C(=O)N1CCN(c3ncccn3)CC1)[C@H]1C(=O)O[C@H](c3ccccc3)[C@H](c3ccccc3)N1[C@@H]2c1ccc(O)cc1` stands at -0.827

For reference, reported composite z-score for `[N-]=[N+]=NCc1ccccc1C[C@@]1(C(=O)NCCN2CCOCC2)N=C(c2ccc(OCCCO)cc2)O[C@@H]1c1ccccc1` stands at 0.271

For reference, reported composite z-score for COC(=O)c1ccc(OC)c(/C=C\CC(OC(=O)c2ccncc2)c2ccccc2)c1 (stereo not given) stands at 0.217

For reference, reported composite z-score for CCCC1(C(=O)OC)C=C2C(=C(C(C)C)C(=O)C2C)CN1 (stereo not given) stands at -0.814

For reference, reported composite z-score for `COCCCNC(=O)[C@@]1(CCC(=O)OC(C)(C)C)N=C(c2ccc(OCCCO)cc2)O[C@H]1c1ccccc1` stands at 0.725

For reference, reported composite z-score for `CCOC(=O)C[C@H]1[C@H](OC(=O)c2cc3ccccc3oc2=O)[C@@H](NC(=O)c2ccc(-c3ccccc3)cc2)c2cc(OCCCO)ccc2N1C(=O)Cc1ccc(OC)cc1` stands at 0.195

For reference, reported composite z-score for `C[N+](C)(C)CCCC[C@@H]1NC(=O)[C@H]2C[C@@H](C(=O)O)[C@@H](c3ccc(O)cc3)N2C1=O` stands at 0.049

For reference, reported composite z-score for `C=C1C(=O)C=C2CN(C(=O)c3ccccc3)[C@@](Cc3ccc(F)cc3)(C(=O)OC)[C@@H]12` stands at 0.172

###

# experiment_summary: E. coli growth modulation, two-sided OD650, primary screen, E. coli filamentation project, strain DRC41, 24 h (AID 1093);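 note: MC1000 strain lacking acrAB efflux and sulA so SOS filamentation is blocked; test concentration not given here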
# experimental_setup: OD650, 24 h, higher = more signal, called active from +8 up or from −8 down
The source made the active and inactive calls.
measurement_name: z-score

For reference, reported z-score for `Cc1ccc(S[C@]2(C(=O)NCCN3CCOCC3)CC(=O)N(C(C)C)[C@@H]2c2ccc(CO)cc2I)cc1` stands at 3.42 (inactive)

For reference, reported z-score for CCN1C(=O)C2CC(=O)C3C(CN(S(=O)(=O)c4ccc(C)cc4)C3c3ccc(C)cc3)C2C1=O (configuration not stated) stands at 0.398 (inactive)

For reference, reported z-score for COC(=O)C1(CC(C)C)C=C2C(=C(C)C(=O)C2C)CN1 (configuration not stated) stands at -0.698 (inactive)

For reference, reported z-score for `Cc1ccc(S[C@]2(C(=O)NC3CC3)CC(=O)N(C3Cc4ccccc4C3)[C@@H]2c2ccc(CO)cc2I)cc1` stands at 0.844 (inactive)

For reference, reported z-score for `C=CCNC(=O)[C@@H]1[C@H]2C(=O)O[C@H](c3ccccc3)[C@H](c3ccccc3)N2[C@H](c2ccc(OCCO)cc2)[C@@]12C(=O)N(C(=O)OCCOC)c1ccccc12` stands at 0.246 (inactive)

For reference, reported z-score for `CCOC(=O)C1=C[C@@H](C(C)(C)C)N(S(=O)(=O)c2ccc(C)cc2)[C@H]1c1ccc(OC)cc1` stands at 0.1 (inactive)

For reference, reported z-score for `C=CCNC(=O)[C@H]1[C@@H]2C(=O)O[C@@H](c3ccccc3)[C@@H](c3ccccc3)N2[C@@H](c2ccc(O)cc2)[C@]12C(=O)Nc1ccc(C#CCC(C(=O)OC)C(=O)OC)cc12` stands at 1.44 (inactive)

###

# experiment_summary: small-molecule microarray binders of probe aNog, primary screen, biochemical, biotinylated probe, 635/667 nm fluorescence (AID 1115);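 note: probe is biotinylated aNog protein used at 0.15 µg/mL for 1 h at 4 C; z-score combines 667 nm fluorescence of each spot with its signal to noise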
# experimental_setup: higher = more signal
measurement_name: composite z-score
Answer with a number only.

For reference, reported composite z-score for `COCCOC(=O)N1C(=O)[C@@]2(c3cc(C#CCC(C(=O)OC)C(=O)OC)ccc31)[C@H](c1ccc(O)cc1)N1[C@H](c3ccccc3)[C@H](c3ccccc3)OC(=O)[C@H]1[C@@H]2C(=O)N1CCc2cc(OC)c(OC)cc2C1` stands at -0.366

For reference, reported composite z-score for `COCCCNC(=O)[C@]1(Cc2ccccc2N=[N+]=[N-])N=C(c2ccc(OCCCO)cc2)O[C@@H]1c1ccccc1` stands at -0.661

For reference, reported composite z-score for `C=C(COC)C(=O)CC[C@H](OC(C)=O)c1ccccc1OCCO` stands at -0.397

For reference, reported composite z-score for CN1C(=O)C2C(C1=O)C1C=C(CCCO)C2C(C2CC2)N1C (centres undefined) stands at -0.0477

###

Provide the recorded z-score for the entries that follow.
# experiment_summary: cell viability in Huh7 cells, primary screen, cytotoxicity control for HCV replication inhibitor project, CellTiter-Glo luminescence, basal, 48 h (AID 1143);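 note: Huh7 hepatoma cells carrying a hepatitis C replication reporter with no stimulus; test concentration not given here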
# experimental_setup: Huh7 HCV replicon, higher = more signal, called active from +8 up or from −8 down
Answer with a number only.

For reference, reported z-score for `COCCOC(=O)N1C(=O)[C@@]2(c3cc(C#CCNC(N)=O)ccc31)[C@H](c1ccccc1OCCO)N1[C@H](c3ccccc3)[C@H](c3ccccc3)OC(=O)[C@H]1[C@@H]2C(=O)N1CCCCCCC1` stands at -0.923

For reference, reported z-score for `C=CC[C@]1(C(N)=O)N=C(c2ccc(OCCCO)cc2)O[C@H]1c1ccccc1N=[N+]=[N-]` stands at -1.05

For reference, reported z-score for `CO[C@H]1O[C@H](CO)[C@@H](OC(=O)Nc2cccc(F)c2)[C@H](OC(=O)c2cc3ccccc3[nH]2)[C@H]1OC(=O)c1cc2ccccc2[nH]1` stands at -3.31

For reference, reported z-score for `C=CCNC(=O)[C@@H]1[C@H]2C(=O)O[C@H](c3ccccc3)[C@H](c3ccccc3)N2[C@H](c2ccc(OCCO)cc2)[C@@]12C(=O)Nc1ccc(C#CC3=CCCCC3)cc12` stands at -4.25

For reference, reported z-score for `CC[C@@H]1C=C(C(=O)O)[C@H](c2cccc(Cl)c2)N1S(=O)(=O)c1ccc(C)cc1` stands at -0.733

For reference, reported z-score for `Cc1cccc([C@H]2C[C@H]3C(Br)=C[C@@]2(CO)C(=O)[C@]32CO2)c1` stands at -0.376

For reference, reported z-score for CC(C)c1ccc(NN2C(C(O)C3=C[C@H]4C[C@@H](C3)C4(C)C)C=CC3C(=O)N(c4ccccc4)C(=O)C32)cc1 (some centres not stated) stands at -0.005
